Target: HIV-1 94UG103 Env (HIV-1 strain 94UG103)
Assay: cell-based or functional assay
Kindly state IC50 neutralization, 18 hour virus/Ab incubation for each of the entries shown.
Numbers only, in µg/mL.

Quick request: IC50 neutralization, 18 hour virus/Ab incubation for each listed item, please.
1. 1496_C09 (PG9) (TCN-109) (antibody, V domains shown) VH: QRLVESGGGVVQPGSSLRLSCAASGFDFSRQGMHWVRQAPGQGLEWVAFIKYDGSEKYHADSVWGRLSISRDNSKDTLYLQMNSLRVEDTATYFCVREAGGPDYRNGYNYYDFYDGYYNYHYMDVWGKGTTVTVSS VL: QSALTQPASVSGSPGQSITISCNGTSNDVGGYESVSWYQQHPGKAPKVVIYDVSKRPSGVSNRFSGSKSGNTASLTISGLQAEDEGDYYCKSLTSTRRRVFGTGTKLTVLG
2. 1443_C16 (PG16) (TCN-116) (antibody, V domains shown) VH: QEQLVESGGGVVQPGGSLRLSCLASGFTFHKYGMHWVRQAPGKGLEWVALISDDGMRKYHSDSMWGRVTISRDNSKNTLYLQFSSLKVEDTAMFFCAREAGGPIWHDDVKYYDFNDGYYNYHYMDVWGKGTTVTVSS VL: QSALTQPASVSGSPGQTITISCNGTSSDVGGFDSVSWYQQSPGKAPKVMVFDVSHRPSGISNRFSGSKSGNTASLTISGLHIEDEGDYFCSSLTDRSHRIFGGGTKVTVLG

Ans:
0.0942
0.0085

Numbers sourced from patent US20160264649A1.
